System: HCT-116 cell line
Test: Inhibition of cell growth, tetrazolium salt (MTT) assay
Assay type: cell-based
Settings: 0.25 μM compound; HCT-116; Table 4
Under this convention, 1 (yes) denotes HCT-116 % Inhibition at 0.25 μM strictly below 40% and 0 (no) denotes HCT-116 % Inhibition at 0.25 μM at or above 40%.

Reference set (10 entries):
Challenge: Does `Nc1nc(NC2CCN(C(=O)c3ccc(-c4ccccc4)cc3)CC2)sc1C(=O)c1c(F)cccc1F` have HCT-116 % Inhibition at 0.25 μM strictly under 40%?
Response given: 0 (no)

Challenge: Another molecule: `CCCCc1ccc(C(=O)N2CCC(Nc3nc(N)c(C(=O)c4c(F)cccc4F)s3)CC2)cc1`
Response given: 1 (yes)

Challenge: Another molecule: `COC(=O)c1ccc(OC(=O)N2CCC(Nc3nc(N)c(C(=O)c4c(F)cccc4F)s3)CC2)cc1`
Response given: 1 (yes)

Challenge: Another molecule: `CC(C)(C)c1ccc(C(=O)N2CCC(Nc3nc(N)c(C(=O)c4c(F)cccc4F)s3)CC2)cc1`
Response given: 1 (yes)

Challenge: Another molecule: `COc1ccccc1C(=O)N1CCC(Nc2nc(N)c(C(=O)c3c(F)cccc3F)s2)CC1`
Response given: 0 (no)

Challenge: Another molecule: `Nc1nc(NC2CCN(C(=O)c3cccc([N+](=O)[O-])c3)CC2)sc1C(=O)c1c(F)cccc1F`
Response given: 1 (yes)

Challenge: Another molecule: `Nc1nc(NC2CCN(C(=O)c3ccc(F)cc3)CC2)sc1C(=O)c1c(F)cccc1F`
Response given: 0 (no)

Challenge: Another molecule: `Nc1nc(NC2CCN(C(=O)C3CCCC3)CC2)sc1C(=O)c1c(F)cccc1F`
Response given: 1 (yes)

Challenge: Another molecule: `COc1ccc(C(=O)N2CCC(Nc3nc(N)c(C(=O)c4c(F)cccc4F)s3)CC2)cc1OC`
Response given: 0 (no)

Challenge: Another molecule: `Nc1nc(NC2CCN(C(=O)c3cccc(C(F)(F)F)c3)CC2)sc1C(=O)c1c(F)cccc1F`
Response given: 0 (no)

Now for a further molecule.
Challenge: Does `Nc1nc(NC2CCN(C(=O)c3cccc4c3-c3ccccc3C4=O)CC2)sc1C(=O)c1c(F)cccc1F` have HCT-116 % Inhibition at 0.25 μM strictly under 40%?
Response given: 1 (yes)

* * *

Target: human CDK4 and genetically truncated (1-264) cyclin D3 (Homo sapiens, UniProt P11802)
Sequence (P11802 whole entry, the tested form may be a part): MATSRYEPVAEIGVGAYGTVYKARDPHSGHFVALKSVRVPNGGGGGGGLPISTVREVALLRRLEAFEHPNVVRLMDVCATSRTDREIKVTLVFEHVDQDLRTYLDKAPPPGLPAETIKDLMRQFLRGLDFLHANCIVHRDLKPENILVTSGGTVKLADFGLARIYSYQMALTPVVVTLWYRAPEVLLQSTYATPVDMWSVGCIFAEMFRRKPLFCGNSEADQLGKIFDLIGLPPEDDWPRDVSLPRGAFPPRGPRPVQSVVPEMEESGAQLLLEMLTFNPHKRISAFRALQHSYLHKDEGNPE
Sequence (P30281 1-264 partner): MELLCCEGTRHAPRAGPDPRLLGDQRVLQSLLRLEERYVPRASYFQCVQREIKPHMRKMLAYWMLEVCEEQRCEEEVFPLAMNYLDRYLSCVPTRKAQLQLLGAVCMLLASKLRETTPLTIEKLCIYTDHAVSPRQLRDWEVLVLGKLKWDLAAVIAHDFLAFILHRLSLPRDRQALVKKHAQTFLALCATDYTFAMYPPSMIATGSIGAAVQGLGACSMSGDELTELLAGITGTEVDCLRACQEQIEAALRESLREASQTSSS
Assay: Inhibition of CDK4/Cyclin D Retinoblastoma Kinase Activity
Conditions: apparent Ki, CDK4/truncated cyclin D3, Rb fragment substrate, 25 μM ATP
Counter-ions that a name gives are not always drawn.
measurement name: pKi
Note on pKi: it is the negative log10 of concentration, concentration in mol/L.

// solved cases for pKi follow
Challenge: Sample `Nc1nc(NC2CCN(S(=O)(=O)CCCN3CC=CC3)CC2)sc1C(=O)c1c(F)cccc1F` — what was its pKi?
Response given: 8.80

Challenge: Another compound: CN1CCN(CCc2ccc(S(=O)(=O)N3CCC(Nc4nc(N)c(C(=O)c5c(F)cccc5F)s4)CC3)cn2)CC1 [Example N4, Hydrochloride Salt]
Response given: 9.04

Next compound, pKi to be filled in.
Challenge: Sample Nc1nc(NC2CCN(S(=O)(=O)CCCN3CCC4CCCCC4C3)CC2)sc1C(=O)c1c(F)cccc1F (mixture of isomers) — what was its pKi?
Response given: 8.96
